- Tested on: NCI-H929 cells
- Assay Procedure: Cell proliferation, XTT-based assay
- Condition Parameters: Homo sapiens, NCI-H929, read-out: IC50 (inhibition of cell proliferation)
Experimental Readout: IC50 (nM)
State the answer as a number, implicitly in nM.

Req: Would you kindly share the measured IC50 for CC(C)C[C@H](NC(=O)[C@H](Cc1ccccc1)NC(=O)c1cnccn1)B(O)O ?
Resp: 3.3

Origin of the recorded values: patent US9289490B2
